Every entry's value here was drawn from ChEMBL document CHEMBL4513216.

System: Plasmodium berghei
Test: Screen against P. berghei liver stage (PbLuc), transformed with Luciferase, at 10uM
Assay type: functional, HepG2
Conditions: tested at 10 uM
Among all 69,000 compounds or so, about 8,600 (12%) showed an effect of 50% or more. The entries come from a sample that favours strong results as a whole.
Here, each record is paired with measured INHIBITION data.
Just the number in %, nothing appended.

Here's what some known entries look like.
> print(dat)
                                   compound     target.of.assay  readout.label  quantitative.readout
1    Cc1nn(C)c2ncc(CN3CCN(c4ncccn4)CC3)cc12  Plasmodium berghei     INHIBITION                   7.3
2  CN(C(=O)CN1CCOC(Cn2cccn2)C1)c1nccs1 (configuration not stated)  Plasmodium berghei     INHIBITION                  52.1
3  Cc1nc(C)n(CC2CCCN(Cc3noc(C)n3)C2)n1 (configuration not stated)  Plasmodium berghei     INHIBITION                  56.6

Ask: Report INHIBITION for O=C(CN1CCOC(Cn2cccn2)C1)Nc1ccncc1 (configuration not stated)
Result: -18.2

Ask: Report INHIBITION for O=C(CN1CCOC(Cn2cccn2)C1)NC(C1CC1)C1CC1 (configuration not stated)
Result: 58.2

Ask: Report INHIBITION for CCc1noc(CN2CCCC(Cn3nc(C)nc3C)C2)n1 (configuration not stated)
Result: 18.2

Ask: Report INHIBITION for Cc1nc(C)n(CC2CCCN(Cc3nc(C4CC4)no3)C2)n1 (configuration not stated)
Result: 60.6

Ask: Report INHIBITION for COCCc1noc(CN2CCCC(Cn3nc(C)nc3C)C2)n1 (configuration not stated)
Result: 40.9

Ask: Report INHIBITION for CCn1ncc(S(=O)(=O)N[C@@H]2CCC[C@@H](n3ccnc3)[C@@H]2O)c1C
Result: 28.7

###

Here, each record is paired with measured INHIBITION data.
Tested on: Plasmodium berghei
Test: Screen against P. berghei liver stage (PbLuc), transformed with Luciferase, at 10uM
Type: functional, HepG2
Settings: tested at 10 uM
About 8,600 (12%) of roughly 69,000 compounds showed an effect of 50% or more. Many of the other results were omitted from the sample, so strong results are more common in it than they were.
Just the number in %, nothing appended.

Here's what some known entries look like.
> print(dat)
                                   compound  quantitative.readout
1  CC(C)c1ccc(CN2C(=O)C3(CCNCC3)Nc3ccccc32)cc1                  80.9
2  CCc1ccc(C(=O)N2CCCCC2Cn2cccn2)o1 (centres undefined)                 -2.35
3  Cc1ncsc1C(=O)NC1CCN(CCC(=O)Nc2ccccc2)CC1                 -5.07
4   Cc1ccc(-c2c(C(=O)NC3CCN(C)CC3)csc2C)cc1                  68.4
5  CNc1nc2c(s1)C(=O)CN(C(=O)[C@@H](N)Cc1cccc(OC)c1)C2                  45.6

Ask: Report INHIBITION for Cc1cc(C)n(CC2CCCCN2C(=O)c2ccc3nncn3c2)n1 (centres undefined)
Result: 5.97

Ask: Report INHIBITION for COc1ccc(OC)c(C(=O)N2CCC(Nc3cccnc3)CC2)c1
Result: -5.08

Ask: Report INHIBITION for CC(C)CC(=O)N1CC(=O)c2sc(Nc3ccc(F)cc3F)nc2C1
Result: 63.4

Ask: Report INHIBITION for CC(=O)NCc1ccc(C(=O)N2CCCCC2Cn2cccn2)o1 (centres undefined)
Result: 61.7

Ask: Report INHIBITION for O=C(Nc1cccnc1)[C@@H]1CCO[C@@H]2CCN(Cc3cccnc3)C[C@@H]21
Result: 12.7

Ask: Report INHIBITION for O=C1CC2(CCNCC2)C(=O)N1Cc1ccc(F)cc1
Result: 16.1

Ask: Report INHIBITION for COc1ccc(OCCC(=O)N2CCCC2Cn2cccn2)cc1 (centres undefined)
Result: -10.1

Ask: Report INHIBITION for COCC(=O)N1CC(=O)c2sc(Nc3ccc(F)cc3F)nc2C1
Result: 53

Ask: Report INHIBITION for N#Cc1cccc(CN2C(=O)C3(CCNCC3)Nc3ccccc32)c1
Result: 25.5

Ask: Report INHIBITION for CCCN1CCC(NC(=O)c2csc(C)c2-c2ccccc2)CC1
Result: 81.5

###

System: Plasmodium berghei
Assay: Screen against P. berghei liver stage (PbLuc), transformed with Luciferase, at 10uM
Assay type: functional, HepG2
Conditions: tested at 10 uM
About 8,600 (12%) of roughly 69,000 compounds showed an effect of 50% or more. The sample holds strong results, similar compounds and a random draw of the others, so the mix is not that of the screen.
readout label: INHIBITION

> print(dat)
                                   compound  readout.label  result
1  Cc1cc(C(=O)N2CCC3(CC2)COCCN(c2cccnc2)C3)[nH]n1     INHIBITION   24.6%
2  O=C(NCCNc1cnccn1)N1CCCC(N2CCCC2)C1 (stereo not given)     INHIBITION   37.4%

Kindly review the next compound as well.
Ask: Supply INHIBITION measured with Plasmodium berghei for Cc1cccc(CN2CC[C@H]3CO[C@H](CNC(=O)N(C)C)[C@H]3C2)c1 .
Result: -4.88%

###

Tested on: Plasmodium berghei
Experiment: Screen against P. berghei liver stage (PbLuc), transformed with Luciferase, at 10uM
Type: functional, HepG2
Settings: tested at 10 uM
Among all 69,000 compounds or so, about 8,600 (12%) showed an effect of 50% or more. This is one part of a sample in which strong results are shown more often than they occur.
Here, each record is paired with measured INHIBITION data.
Just the number in %, nothing appended.

Ask: Report INHIBITION for Cc1cc(-c2cnc(N3CCC(C(N)=O)CC3)nc2C(C)C)on1
Result: 77.1

###

Test system: Plasmodium berghei
Test: Screen against P. berghei liver stage (PbLuc), transformed with Luciferase, at 10uM
Type: functional, HepG2
Settings: tested at 10 uM
The campaign covered roughly 69,000 compounds. About 8,600 (12%) showed an effect of 50% or more. What follows is part of a selection rich in strong results, with near analogues and random picks from the rest.
Lab note: cut-off is 40%. Strictly less in INHIBITION is Yes. Exactly 40% or more is No.

Recorded results for 5 compounds are shown here.
> print(dat)
                                   compound     target.of.assay  answer.label
1  COc1ccc(C(=O)N2CCOCC2c2ccc(C)o2)cc1 (stereo unspecified)  Plasmodium berghei            No
2  O=C(CN1CCOC(CNc2cccnn2)C1)NCc1cccs1 (stereo unspecified)  Plasmodium berghei           Yes
3  Cc1ccc(C2COCCN2C(=O)c2ccc(N(C)C)cc2)o1 (stereo unspecified)  Plasmodium berghei           Yes
4  COCc1ccc(C(=O)N2CCOCC2c2ccc(C)o2)cc1 (stereo unspecified)  Plasmodium berghei           Yes
5  CCC(CC(=O)Nc1ccc2c(c1)CC(=O)N2)c1ccccc1 (stereo unspecified)  Plasmodium berghei            No

Consider now this further compound.
Ask: Report whether reported INHIBITION is lower than 40% (strictly) for COCc1ccccc1NC(=O)c1ccoc1
Result: Yes

###

Test system: Plasmodium berghei
Test: Screen against P. berghei liver stage (PbLuc), transformed with Luciferase, at 10uM
Assay type: functional, HepG2
Details: tested at 10 uM
About 8,600 (12%) of roughly 69,000 compounds showed an effect of 50% or more. The entries come from a sample that favours strong results as a whole.
Here, each record is paired with measured INHIBITION data.
Just the number in %, nothing appended.

Here's what some known entries look like.
> print(dat)
                                   compound  readout.label  quantitative.readout
1    CC(C)CCN1CCc2[nH]nc(C(=O)N3CC=CC3)c2C1     INHIBITION                  50.3
2  Cc1cccc(CN2CCC3(CCC(CC(=O)N(C)C)CC3)CC2)n1     INHIBITION                  23.1
3  Cc1nc(CN2CCC(N(C)Cc3noc(C(C)C)n3)C2)oc1C (stereo unspecified)     INHIBITION                  11.4

Ask: Report INHIBITION for CCNC(=O)Nc1ccc(N2CCC(OC)CC2)c(C(F)(F)F)c1
Result: 89.6

Ask: Report INHIBITION for CCC(C)(NCC(=O)Nc1ccccc1)c1nc(C)cs1 (stereo unspecified)
Result: 9.3

Ask: Report INHIBITION for CCC(C)(NCC(=O)NC(C)C)c1nc(C)cs1 (stereo unspecified)
Result: 76.7

Ask: Report INHIBITION for Cc1cc(CN2CC[C@H]3OCC[C@@]3(C(=O)NCc3ccco3)C2)no1
Result: -0.813

Ask: Report INHIBITION for CCNC(=O)C1CCCN(c2ccc(C#N)cc2C(F)(F)F)C1 (stereo unspecified)
Result: 26.3
